Experimental target: CDK2 CycE1 kinase (Homo sapiens (Human))
Test summary: Determination of inhibitory activity against CDK2 CycE1 kinase
Assay type: biochemical
Settings: 10 μM ATP
Items are presented alongside their recorded IC50.

Compound	Experimental target	IC50
CC(C)NC(=O)O[C@@H]1CC[C@H](c2cc(Nc3ccc4c(c3)S(=O)(=O)CC4)n[nH]2)C1	CDK2 CycE1 kinase (Homo sapiens (Human))	< 10 nM
CC(C)NC(=O)O[C@@H]1CC[C@H](c2cc(Nc3ccc4c(c3)CNS4(=O)=O)n[nH]2)C1	CDK2 CycE1 kinase (Homo sapiens (Human))	< 10 nM
CC(C)NC(=O)O[C@@H]1CC[C@H](c2cc(Nc3ccc(CN(C)C)cc3F)n[nH]2)C1	CDK2 CycE1 kinase (Homo sapiens (Human))	< 10 nM

Data point: `CC(C)NC(=O)O[C@@H]1CC[C@H](c2cc(NC3CCN(S(=O)(=O)c4cnn(C)c4)CC3)n[nH]2)C1` ; IC50 = 10 to 50 nM

Data point: CNS(=O)(=O)c1ccc(Nc2cc(C3CCC(OC(=O)NC(C)C)C3)[nH]n2)c(F)c1 (stereo not drawn) ; IC50 = < 10 nM

Data point: `CC1(NC(=O)O[C@@H]2CC[C@H](c3cc(Nc4ccc5c(c4)CS(=O)(=O)C5)n[nH]3)C2)CC1` ; IC50 = < 10 nM

Data point: `CC(C)NC(=O)O[C@@H]1CC[C@H](c2cc(Nc3ccc(NS(C)(=O)=O)c(OC(F)(F)F)c3)n[nH]2)C1` ; IC50 = < 10 nM

Data point: `CC(C)NC(=O)O[C@@H]1CC[C@H](c2cc(Nc3ccc(S(N)(=O)=O)c(F)c3)n[nH]2)C1` ; IC50 = < 10 nM

Data point: `O=C(NC1CC1)O[C@@H]1CC[C@H](c2cc(Nc3ccc4c(c3)CS(=O)(=O)C4)n[nH]2)C1` ; IC50 = < 10 nM

Data point: `[2H]C([2H])([2H])C([2H])(NC(=O)O[C@@H]1CC[C@H](c2cc(Nc3ccc4c(c3)CS(=O)(=O)C4)n[nH]2)C1)C([2H])([2H])[2H]` ; IC50 = < 10 nM

Data point: `CC(C)NC(=O)O[C@@H]1CC[C@H](c2cc(Nc3ccc(S(=O)(=O)N(C)C)cn3)n[nH]2)C1` ; IC50 = 10 to 50 nM

Data point: `CC(C)NC(=O)O[C@@H]1CC[C@H](c2cc(Nc3ccc(S(C)(=O)=O)cc3)n[nH]2)C1` ; IC50 = < 10 nM

Data point: COCCN(C=O)c1ccc(Nc2cc(C3CCC(OC(=O)NC(C)C)C3)[nH]n2)nc1 (stereo not drawn) ; IC50 = 10 to 50 nM

Data point: `CC(C)NC(=O)O[C@@H]1CC[C@H](c2cc(Nc3ccc(NS(C)(=O)=O)nc3)n[nH]2)C1` ; IC50 = < 10 nM

Data point: `CC(C)NC(=O)O[C@@H]1CC[C@H](c2cc(Nc3ccc(N4CCCS4(=O)=O)cn3)n[nH]2)C1` ; IC50 = < 10 nM

* * *

Experimental target: CDK2/CycA2 kinase (Homo sapiens (Human), UniProt P24941)
Test summary: Determination of inhibitory activity against CDK2/CycA2 kinase
Format: biochemical
Settings: 10 μM ATP
pIC50: −log10 of the molar value.
Metric name: pIC50

In the examples that follow, each entry is paired with its recorded pIC50.
Molecule	pIC50
CC(C)NC(=O)O[C@@H]1CC[C@H](c2cc(Nc3ccc4c(c3)CNS4(=O)=O)n[nH]2)C1	> 8.00
COCCN(C=O)c1ccc(Nc2cc(C3CCC(OC(=O)NC(C)C)C3)[nH]n2)nc1 (stereo not shown)	7.30 to 8.00
CC(C)NC(=O)OC1CCC(c2cc(NC3CCN(S(C)(=O)=O)CC3)n[nH]2)C1 (stereo not shown)	7.30 to 8.00
CC(C)NC(=O)O[C@@H]1CC[C@H](c2cc(Nc3ccc4c(c3)CC(=O)N4)n[nH]2)C1	> 8.00
[2H]C([2H])([2H])C([2H])(NC(=O)O[C@@H]1CC[C@H](c2cc(Nc3ccc4c(c3)CS(=O)(=O)C4)n[nH]2)C1)C([2H])([2H])[2H]	> 8.00
CC(=O)N(C)c1ccc(Nc2cc([C@H]3CC[C@@H](OC(=O)NC(C)C)C3)[nH]n2)nc1	7.30 to 8.00

Data point: `CC(C)NC(=O)O[C@@H]1CC[C@H](c2cc(Nc3ccc(NS(C)(=O)=O)c(OC(F)(F)F)n3)n[nH]2)C1` ; pIC50 = > 8.00

Hey, just so you know, these numbers are from patent US20250084067A1.
